Quick reference: protein stability index of the listed items.
B1: INTS3 (parent)
chain: FHPIKETVVEEPVDITPYLDQLDE

# Variants of: B1
# assay.protocol: protein stability index of a GFP-peptide fusion (GPS, HEK-293T) (PSI 1-6); higher = more stable;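 also: lentivirally expressed fusions sorted by FACS into six bins by GFP to DsRed ratio, PSI derived from sequencing read proportions per bin multiplied by bin number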
# condition.description: c terminus: a fixed tail appended

variant.label	protein stability index
V8W	2.54
L19I	3.12
P12M	2.65
